Where do these numbers come from? They come from patent US20230391775A1.

protocol.summary: Drug tissue distribution assay: plasma pharmacokinetics
Type: in vivo
experimental.parameters: mouse, mice, single oral intragastric 30 mg/kg

compound: CCOc1nc(Nc2ccc(C(N3CCOCC3)C(F)(F)F)cc2OC)nc2[nH]ccc12 (single isomer, unassigned) [Compound 4]
CL/F, mL/min/kg: 154

* * *

protocol.summary: Drug tissue distribution assay: plasma pharmacokinetics
Format: in vivo
experimental.parameters: mouse, mice, single oral intragastric 30 mg/kg
assay.metric: half-life (h)

compound: CCOc1nc(Nc2ccc(C(N3CCOCC3)C(F)(F)F)cc2OC)nc2[nH]ccc12 (single isomer, unassigned) [Compound 4]
assay.metric: half-life
readout.units: h
reported.measurement: 2.8

* * *

The entries below come with measured IC50 values attached.
system.under.test: LRRK2 G2019S (Homo sapiens (Human), UniProt Q5S007, G2019S)
Sequence (Q5S007 whole entry G2019S): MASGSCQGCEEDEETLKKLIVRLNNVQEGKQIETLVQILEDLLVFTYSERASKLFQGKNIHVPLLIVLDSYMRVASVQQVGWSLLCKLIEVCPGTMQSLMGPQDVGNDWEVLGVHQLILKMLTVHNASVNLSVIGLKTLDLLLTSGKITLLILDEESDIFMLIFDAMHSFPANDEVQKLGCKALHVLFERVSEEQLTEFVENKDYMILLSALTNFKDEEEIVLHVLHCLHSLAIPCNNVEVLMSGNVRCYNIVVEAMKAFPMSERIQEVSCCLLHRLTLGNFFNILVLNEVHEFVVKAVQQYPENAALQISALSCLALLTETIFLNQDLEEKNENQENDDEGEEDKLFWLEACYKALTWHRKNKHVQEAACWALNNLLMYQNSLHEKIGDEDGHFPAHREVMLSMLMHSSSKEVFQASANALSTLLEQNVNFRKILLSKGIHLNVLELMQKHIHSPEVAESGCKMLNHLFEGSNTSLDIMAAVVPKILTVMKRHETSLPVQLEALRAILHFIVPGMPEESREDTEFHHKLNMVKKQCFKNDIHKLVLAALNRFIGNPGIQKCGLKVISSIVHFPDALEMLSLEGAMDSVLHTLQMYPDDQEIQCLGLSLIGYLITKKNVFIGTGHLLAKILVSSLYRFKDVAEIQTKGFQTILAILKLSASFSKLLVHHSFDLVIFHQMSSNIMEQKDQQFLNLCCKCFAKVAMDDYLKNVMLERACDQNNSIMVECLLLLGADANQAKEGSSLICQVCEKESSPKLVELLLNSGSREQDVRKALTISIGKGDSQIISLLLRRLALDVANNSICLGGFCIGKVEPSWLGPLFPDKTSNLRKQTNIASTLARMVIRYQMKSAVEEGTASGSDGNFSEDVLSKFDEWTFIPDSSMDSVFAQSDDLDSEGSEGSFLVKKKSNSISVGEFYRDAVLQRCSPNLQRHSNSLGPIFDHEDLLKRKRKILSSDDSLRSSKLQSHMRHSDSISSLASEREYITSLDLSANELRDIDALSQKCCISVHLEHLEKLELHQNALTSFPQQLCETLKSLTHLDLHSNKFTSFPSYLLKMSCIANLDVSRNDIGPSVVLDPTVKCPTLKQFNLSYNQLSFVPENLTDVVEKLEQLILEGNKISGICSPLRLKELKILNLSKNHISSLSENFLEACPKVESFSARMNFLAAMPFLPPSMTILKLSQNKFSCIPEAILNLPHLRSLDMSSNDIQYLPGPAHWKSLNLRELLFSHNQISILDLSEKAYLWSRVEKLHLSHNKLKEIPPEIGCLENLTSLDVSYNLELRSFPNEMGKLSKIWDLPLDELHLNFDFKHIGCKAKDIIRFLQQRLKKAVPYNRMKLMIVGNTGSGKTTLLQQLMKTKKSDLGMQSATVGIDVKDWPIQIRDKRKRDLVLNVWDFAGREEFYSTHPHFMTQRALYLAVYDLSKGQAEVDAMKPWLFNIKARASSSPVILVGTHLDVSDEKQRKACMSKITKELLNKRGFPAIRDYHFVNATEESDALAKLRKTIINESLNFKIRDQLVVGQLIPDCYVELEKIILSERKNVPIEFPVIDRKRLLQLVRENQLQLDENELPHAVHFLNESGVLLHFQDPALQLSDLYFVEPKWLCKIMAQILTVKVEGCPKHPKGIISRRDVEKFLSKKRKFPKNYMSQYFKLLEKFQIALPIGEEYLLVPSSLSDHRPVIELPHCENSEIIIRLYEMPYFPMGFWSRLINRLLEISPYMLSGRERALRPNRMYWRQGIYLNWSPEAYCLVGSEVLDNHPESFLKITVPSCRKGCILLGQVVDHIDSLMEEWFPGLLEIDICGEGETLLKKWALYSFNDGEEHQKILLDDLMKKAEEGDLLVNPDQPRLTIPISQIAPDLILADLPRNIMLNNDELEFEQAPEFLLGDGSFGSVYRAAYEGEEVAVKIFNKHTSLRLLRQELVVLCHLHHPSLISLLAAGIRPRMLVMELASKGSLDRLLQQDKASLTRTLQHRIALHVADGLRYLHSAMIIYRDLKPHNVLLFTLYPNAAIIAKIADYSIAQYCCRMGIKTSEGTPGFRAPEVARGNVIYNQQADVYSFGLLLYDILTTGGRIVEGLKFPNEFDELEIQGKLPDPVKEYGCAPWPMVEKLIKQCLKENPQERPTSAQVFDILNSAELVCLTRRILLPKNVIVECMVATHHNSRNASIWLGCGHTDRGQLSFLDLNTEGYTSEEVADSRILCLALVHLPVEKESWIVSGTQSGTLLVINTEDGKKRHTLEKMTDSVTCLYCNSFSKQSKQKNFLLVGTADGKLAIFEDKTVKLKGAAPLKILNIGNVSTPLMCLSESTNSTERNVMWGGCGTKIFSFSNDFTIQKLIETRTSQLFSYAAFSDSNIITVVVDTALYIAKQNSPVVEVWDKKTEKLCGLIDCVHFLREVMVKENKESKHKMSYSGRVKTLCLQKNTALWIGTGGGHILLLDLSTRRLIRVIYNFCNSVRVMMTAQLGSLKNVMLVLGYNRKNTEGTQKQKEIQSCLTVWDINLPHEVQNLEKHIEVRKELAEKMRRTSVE
protocol.summary: Adapta kinase assay (LRRK2_IC50 assay)
experimental.parameters: Adapta TR-FRET, 1 h, room temperature
assay.metric: IC50 (µM)

compound: CCOc1nc(Nc2ccc(C(N3CCN(C)CC3)C(F)(F)F)cc2OC)nc2[nH]ccc12 (single isomer, unassigned) [Compound 29]
reported.measurement: 0.012
//
compound: CCOc1nc(Nc2ccc(C(C)(N3CCOCC3)C(F)(F)F)cc2OC)nc2[nH]ccc12 (single isomer, unassigned) [Compound 2]
reported.measurement: 0.055
//
compound: CCOc1nc(Nc2ccc(C(N3CCOCC3)C(F)(F)F)cc2CC)nc2[nH]ccc12 (single isomer, unassigned) [Compound 25]
reported.measurement: 0.141
//
compound: CCOc1nc(Nc2ccc(C(N3C[C@@H]4C[C@H]3CO4)C(F)(F)F)cc2OC)nc2[nH]ccc12 (single isomer, unassigned) [Compound 10]
reported.measurement: 0.011
//
compound: CCOc1nc(Nc2cc(F)c(C3(N4CCOCC4)CC3)cc2OC)nc2[nH]ccc12
reported.measurement: 0.038
//
compound: CCOc1nc(Nc2ccc(C(N3CCN(C)CC3)C(F)(F)F)cc2OC)nc2[nH]ccc12 (single isomer, unassigned) [Compound 30]
reported.measurement: 0.022
//
compound: CCOc1nc(Nc2ccc(C(N3C[C@H]4C[C@@H]3CO4)C(F)(F)F)cc2OC)nc2[nH]ccc12 (single isomer, unassigned) [Compound 33]
reported.measurement: 0.01
//
compound: COc1cc(C(N2C[C@@H]3C[C@H]2CO3)C(F)(F)F)ccc1Nc1nc(OCC(F)(F)F)c2cc[nH]c2n1 (single isomer, unassigned) [Compound 7]
reported.measurement: 0.047
//
compound: CCOc1nc(Nc2ccc(C3(N4CCOCC4)CC3)cc2OC)nc2[nH]ccc12
reported.measurement: 0.007
//
compound: CCOc1nc(Nc2ccc(C(N3CCOCC3)C(F)(F)F)cc2Cl)nc2[nH]ccc12 (single isomer, unassigned) [Compound 22]
reported.measurement: 0.138
//
compound: COc1nc(Nc2ccc(C(N3CCOCC3)C(F)(F)F)cc2Cl)nc2[nH]ccc12 (single isomer, unassigned) [Compound 24]
reported.measurement: 0.122
//
compound: CNc1nc(Nc2cc(F)c(C3(N4CCOCC4)CC3)cc2OC)ncc1C(F)(F)F
reported.measurement: 0.034
//
compound: CCOc1nc(Nc2ccc(C(N3CCOCC3)C(F)(F)F)cc2OC)nc2[nH]ccc12 (single isomer, unassigned) [Compound 1]
reported.measurement: 0.012

* * *

protocol.summary: Drug tissue distribution assay: brain tissue pharmacokinetics / blood-brain barrier permeability
Type: in vivo
experimental.parameters: mouse, brain / plasma; mice, single oral intragastric 30 mg/kg; read-out: AUCbrain/AUCplasma

compound: CCOc1nc(Nc2ccc(C(N3CCOCC3)C(F)(F)F)cc2OC)nc2[nH]ccc12 (single isomer, unassigned)
Kp: ~2
